tested on: Oryza sativa; assay: Phytotoxicity to rice (direct-seeded and transplanted) in paddy condition, greenhouse pot test; assay type: in vivo; conditions: 40 g/ha; direct-seeded rice, treated 5 days after sowing; visual rating after two weeks
// reported Phytotoxicity, Oryza sativa, Seed per item
Dear colleague, please return just the value in %, with no unit written.

Recorded Phytotoxicity, Oryza sativa, Seed, per entry:
COc1cc(OC)nc(NC(=O)NS(=O)(=O)c2cccnc2[C@@H](OC(=O)CCO)[C@H](C)F)n1 [Com. 3]; 30
COCC(=O)O[C@H](c1ncccc1S(=O)(=O)NC(=O)Nc1nc(OC)cc(OC)n1)[C@H](C)F [Com. 2]; 20
COCCC(=O)O[C@H](c1ncccc1S(=O)(=O)NC(=O)Nc1nc(OC)cc(OC)n1)[C@H](C)F [Com. 4]; 20
COCC(=O)O[C@H](c1nccc(C)c1S(=O)(=O)NC(=O)Nc1nc(OC)cc(OC)n1)[C@H](C)F [Com. 7]; 20
COc1cc(OC)nc(NC(=O)NS(=O)(=O)c2ccccc2[C@@H](OC(C)=O)[C@H](C)F)n1 [Standard Compound B, reference compound]; 50
COc1cc(OC)nc(NC(=O)NS(=O)(=O)c2cccnc2[C@@H](O)[C@H](C)F)n1 [Standard Compound C, reference compound]; 30

Write down measured Phytotoxicity, Oryza sativa, Seed (Oryza sativa) for this compound. CCOC(=O)c1cnn(C)c1S(=O)(=O)NC(=O)Nc1nc(OC)cc(OC)n1 [Standard Compound E, Pyrazosulfuron-ethyl, reference compound]
20

Name the value of Phytotoxicity, Oryza sativa, Seed reported for COc1cc(OC)nc(NC(=O)NS(=O)(=O)c2cccnc2[C@@H](OC(=O)CO)[C@H](C)F)n1 [Com. 1] when tested on Oryza sativa.
30

Please look at COc1cc(OC)nc(NC(=O)NS(=O)(=O)c2ccccc2[C@@H](O)[C@H](C)F)n1 [Standard Compound A, reference compound] and tell me its recorded Phytotoxicity, Oryza sativa, Seed on Oryza sativa.
50

###

tested on: Oryza sativa; experiment: Phytotoxicity to rice (direct-seeded and transplanted) in paddy condition, greenhouse pot test; format: in vivo; details: 40 g/ha; transplanted rice seedlings, treated 5 days after transplanting; visual rating after two weeks
Measurement Label: Phytotoxicity, Oryza sativa, Transplanted (%)
Report the figure in % without appending any unit label.

COCCC(=O)O[C@H](c1ncccc1S(=O)(=O)NC(=O)Nc1nc(OC)cc(OC)n1)[C@H](C)F; 10

Complete the entry with Phytotoxicity, Oryza sativa, Transplanted for COc1cc(OC)nc(NC(=O)NS(=O)(=O)c2ccccc2[C@@H](O)[C@H](C)F)n1 [Standard Compound A, reference compound]
40

Identify measured Phytotoxicity, Oryza sativa, Transplanted corresponding to COc1cc(OC)nc(NC(=O)NS(=O)(=O)c2cccnc2[C@@H](OC(C)=O)[C@H](C)F)n1 [Standard Compound D, reference compound]
20

###

tested on: Oryza sativa; test: Phytotoxicity to rice (direct-seeded and transplanted) in paddy condition, greenhouse pot test; assay type: in vivo; conditions: 20 g/ha; transplanted rice seedlings, treated 5 days after transplanting; visual rating after two weeks
Measurement Label: Phytotoxicity, Oryza sativa, Transplanted (%)
Answer with a number only, understood to be in %.

# count of solved cases: 2
COCC(=O)O[C@H](c1nccc(Cl)c1S(=O)(=O)NC(=O)Nc1nc(OC)cc(OC)n1)[C@H](C)F; 0
COCCC(=O)O[C@H](c1ncccc1S(=O)(=O)NC(=O)Nc1nc(OC)cc(OC)n1)[C@H](C)F; 0

Quote Phytotoxicity, Oryza sativa, Transplanted reported for CCOC(=O)c1cnn(C)c1S(=O)(=O)NC(=O)Nc1nc(OC)cc(OC)n1 [Standard Compound E, Pyrazosulfuron-ethyl, reference compound] please.
0

Recall and state the measured Phytotoxicity, Oryza sativa, Transplanted for COc1cc(OC)nc(NC(=O)NS(=O)(=O)c2cccnc2[C@@H](OC(C)=O)[C@H](C)F)n1 [Standard Compound D, reference compound] .
10

###

system: Oryza sativa; assay: Phytotoxicity to rice (direct-seeded and transplanted) in paddy condition, greenhouse pot test; type: in vivo; conditions: 20 g/ha; transplanted rice seedlings, treated 5 days after transplanting; visual rating after two weeks
Measurement Label: Phytotoxicity, Oryza sativa, Transplanted (%)
Expressed in %, but write only the number.

The examples below pair each entry with its known result.
COc1cc(OC)nc(NC(=O)NS(=O)(=O)c2ccccc2[C@@H](O)[C@H](C)F)n1 [Standard Compound A, reference compound]; 30
COc1cc(OC)nc(NC(=O)NS(=O)(=O)c2cccnc2[C@@H](OC(=O)CCO)[C@H](C)F)n1 [Com. 3]; 10
COc1cc(OC)nc(NC(=O)NS(=O)(=O)c2cccnc2[C@@H](OC(=O)CO)[C@H](C)F)n1 [Com. 1]; 10
COCC(=O)O[C@H](c1ncccc1S(=O)(=O)NC(=O)Nc1nc(OC)cc(OC)n1)[C@H](C)F [Com. 2]; 0
COCC(=O)O[C@H](c1nccc(Br)c1S(=O)(=O)NC(=O)Nc1nc(OC)cc(OC)n1)[C@H](C)F [Com. 6]; 0
COc1cc(OC)nc(NC(=O)NS(=O)(=O)c2ccccc2[C@@H](OC(C)=O)[C@H](C)F)n1 [Standard Compound B, reference compound]; 20
COCC(=O)O[C@H](c1nccc(C)c1S(=O)(=O)NC(=O)Nc1nc(OC)cc(OC)n1)[C@H](C)F [Com. 7]; 0

# input for lookup
Return Phytotoxicity, Oryza sativa, Transplanted (reported value) for this compound: COc1cc(OC)nc(NC(=O)NS(=O)(=O)c2cccnc2[C@@H](O)[C@H](C)F)n1 [Standard Compound C, reference compound]
20

###

Tested on: Oryza sativa
Assay: Phytotoxicity to rice (direct-seeded and transplanted) in paddy condition, greenhouse pot test
Type: in vivo
Details: 40 g/ha; transplanted rice seedlings, treated 5 days after transplanting; visual rating after two weeks
From the text: Pots having a surface area of 150 cm^2 were filled with a small amount of fertilizer and sterilized paddy field soil in a muddy state with a depth of 5 cm. Five (5) seeds of pre-germinated rice were directly sown on the soil surface and three (3) rice seedlings (2˜3 leaves) prepared in advance were transplanted in a depth of 2 cm in each pot. In another pot, seeds of barnyardgrass were sown and incorporated into the surface layer of soil. […]
Measurement Label: Phytotoxicity, Oryza sativa, Transplanted (%)
Number only, in %; omit the unit.

Some compounds with recorded Phytotoxicity, Oryza sativa, Transplanted:
COCC(=O)O[C@H](c1nccc(Cl)c1S(=O)(=O)NC(=O)Nc1nc(OC)cc(OC)n1)[C@H](C)F [Com. 5]; 0
COCC(=O)O[C@H](c1ncccc1S(=O)(=O)NC(=O)Nc1nc(OC)cc(OC)n1)[C@H](C)F [Com. 2]; 10
COc1cc(OC)nc(NC(=O)NS(=O)(=O)c2ccccc2[C@@H](OC(C)=O)[C@H](C)F)n1 [Standard Compound B, reference compound]; 40
COc1cc(OC)nc(NC(=O)NS(=O)(=O)c2cccnc2[C@@H](OC(=O)CO)[C@H](C)F)n1 [Com. 1]; 10
COCC(=O)O[C@H](c1nccc(C)c1S(=O)(=O)NC(=O)Nc1nc(OC)cc(OC)n1)[C@H](C)F [Com. 7]; 10

State Phytotoxicity, Oryza sativa, Transplanted on Oryza sativa. Entry: COCC(=O)O[C@H](c1nccc(Br)c1S(=O)(=O)NC(=O)Nc1nc(OC)cc(OC)n1)[C@H](C)F [Com. 6]
0

# return Phytotoxicity, Oryza sativa, Transplanted for COc1cc(OC)nc(NC(=O)NS(=O)(=O)c2cccnc2[C@@H](OC(=O)CCO)[C@H](C)F)n1 [Com. 3] , test system: Oryza sativa
20

Fill in Phytotoxicity, Oryza sativa, Transplanted for COc1cc(OC)nc(NC(=O)NS(=O)(=O)c2cccnc2[C@@H](O)[C@H](C)F)n1 [Standard Compound C, reference compound] tested with Oryza sativa.
30

Given CCOC(=O)c1cnn(C)c1S(=O)(=O)NC(=O)Nc1nc(OC)cc(OC)n1 [Standard Compound E, Pyrazosulfuron-ethyl, reference compound] , report its Phytotoxicity, Oryza sativa, Transplanted on Oryza sativa.
0

###

Some molecules, each annotated with its measured Phytotoxicity, Oryza sativa, Transplanted.
test system: Oryza sativa; experiment: Phytotoxicity to rice (direct-seeded and transplanted) in paddy condition, greenhouse pot test; type: in vivo; settings: 10 g/ha; transplanted rice seedlings, treated 5 days after transplanting; visual rating after two weeks
// note: answer is a bare numeric in %

Below are worked cases with known answers.
COCC(=O)O[C@H](c1nccc(Br)c1S(=O)(=O)NC(=O)Nc1nc(OC)cc(OC)n1)[C@H](C)F; 0
COCCC(=O)O[C@H](c1ncccc1S(=O)(=O)NC(=O)Nc1nc(OC)cc(OC)n1)[C@H](C)F; 0
COCC(=O)O[C@H](c1nccc(Cl)c1S(=O)(=O)NC(=O)Nc1nc(OC)cc(OC)n1)[C@H](C)F; 0

# return recorded Phytotoxicity, Oryza sativa, Transplanted for entry COc1cc(OC)nc(NC(=O)NS(=O)(=O)c2cccnc2[C@@H](OC(=O)CO)[C@H](C)F)n1
0

Give me measured Phytotoxicity, Oryza sativa, Transplanted, please, for this molecule: COc1cc(OC)nc(NC(=O)NS(=O)(=O)c2cccnc2[C@@H](OC(=O)CCO)[C@H](C)F)n1
5
